Where do the numbers come from? From patent US5650406A.

Listing of entries alongside the reported Ki.
# Measured target: σ-receptor
# Assay procedure: σ-receptor binding, [^3 H] DTG displacement on rat brain membranes (Table 1)
# Test context: hydrochloride; [^3 H] DTG 3 nM, 25° C., 60 minutes; rat brain membrane; read-out: Sigma [^3 H] DTG Ki
API: value field is a number in nM; no unit string.

- C1CC2CCC1CN(CCC1C3CC4CC(C3)CC1C4)C2 (stereo not drawn): 0.34
- COC12CC3CC(C1)C(CCN1CC4CCC(CC4)C1)C(C3)C2 (single isomer, unassigned): 1.03

Query for σ-receptor: what Ki does the record show for ClC12CC3CC(C1)C(CCN1CC4CCC(CC4)C1)C(C3)C2 (single isomer, unassigned) ? 0.27
